B1: CPEB3 Ribozyme (parent)
chain: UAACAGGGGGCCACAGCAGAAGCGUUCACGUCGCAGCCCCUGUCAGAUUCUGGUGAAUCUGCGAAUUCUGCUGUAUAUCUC

variants of: B1; assay: self-cleavage, relative activity (ratio to wild type); higher = more cleavage; in vitro, sequencing
I would appreciate it if you labelled entries satisfied when self-cleavage is 0.2 or higher, otherwise not satisfied.

* UAACAGGGGGCCACAGCAGAAGCGUUCACGUCGCAGCCCUAGUCAGAUUCUGGUGAAUCUGCGAAUUCUGCUGUAUAUCUC [C40U U41A] | satisfied
* UAACAGGGGGCCACAGCAGAAGCGUUCACGUCGCAGCCCCUGUCAGAUUCUGAUGAAUCUGCGUAUUCUGCUGUAUAUCUC [G53A A64U] | satisfied
* UAACAGGGUGCCACAGCAGAAGCGUUCACGUCGCAGCCCCUGUCCGAUUCUGGUGAAUCUGCGAAUUCUGCUGUAUAUCUC [G9U A45C] | not satisfied
* UAACAGGUGGCCACAGCAGAAGCGUACACGUCGCAGCCCCUGUCAGAUUCUGGUGAAUCUGCGAAUUCUGCUGUAUAUCUC [G8U U26A] | not satisfied
* UAACAGGGGGCCACGGCAGAAGCGUUCACGUCGCAGCCCCUGUCAGAUACUGGUGAAUCUGCGAAUUCUGCUGUAUAUCUC [A15G U49A] | satisfied

Answer whether self-cleavage of UAACAGGGGGCGACAGGAGAAGCGUUCACGUCGCAGCCCCUGUCAGAUUCUGGUGAAUCUGCGAAUUCUGCUGUAUAUCUC [C12G C17G] is greater than or equal to 0.2. satisfied

State whether the measured self-cleavage reaches 0.2, counting equality as reaching it, for UAACAGGGGGCCACAGCAGAAGCGUUCACGUCGCAGCCCCUGUCAGAUUCUUGUGAAUCUGCGAAUUCUGCAGUAUAUCUC [G52U U72A] satisfied

Dear colleague, could you confirm whether UAACAGGGGGCCACAGCAGAAGCGUUCACGUCGCAGCCCCUGUCAGAUUCUGGUGAAUCUGCGUAUUCUGCCGUAUAUCUC [A64U U72C] has self-cleavage at or above 0.2? satisfied

Could you verify whether the entry UAACAGGGGGCCACAGCAGAAUCGUUCACGUCGCAGCCCCUGUCAGAUUCUGGUGAAUCUGCGAAGUCUGCUGUAUAUCUC [G22U U66G] shows self-cleavage of no less than 0.2? not satisfied

Quick check: does CAACAGGGGGCCACAGCAGAAGCGUUCACGUCGCAGCCCCUGUCAGAUUCUGGUGAAUCUGCGAAUUCUGCUGUAUAUUUC [U1C C79U] have self-cleavage greater than or equal to 0.2? satisfied

Could you please find out whether UAACAGGGGGCCACAGCAGAAGCGUUCACGUCGCAGCCCCUGUCAGAUUCUGGUGAAUCUGCGAAUUCAGCUGUAUAUCAC [U69A U80A] has self-cleavage that meets 0.2 or exceeds it? satisfied

Identify whether the reported self-cleavage of the following variant is 0.2 or greater: UAACAGGGGGCCACAGCAGAAGCGUCCACGUCGCAGCCCCUGUCAGAUUCUGGUGAAUCAGCGAAUUCUGCUGUAUAUCUC [U26C U60A] satisfied

Does the variant UAACAGGGGGCCACAGCAGAAGCGUUCGCGUCGCAGCCCCUGUCAGAUUAUGGUGAAUCUGCGAAUUCUGCUGUAUAUCUC [A28G C50A] have recorded self-cleavage that is 0.2 or more? satisfied

Could you tell me if the measured self-cleavage of UAACAGGGGGCCACAGCAGGAGCGUUCACGUGGCAGCCCCUGUCAGAUUCUGGUGAAUCUGCGAAUUCUGCUGUAUAUCUC [A20G C32G] reaches 0.2 or more? not satisfied

Hi team, for UAACAGGGGGCCACAGCAGAAGCGUUCACGUCGCAGCCUCUGUCAGAUUCUGGUGAAUCUGCGAAUUCUGCUGUAUAUCUC [C39U] , is the recorded self-cleavage at or above 0.2? satisfied

Form field: self-cleavage at least 0.2? Entry: UAACAGGGGGCCACAGCAGAAGCGUUCACGUCGCAGCCCCUGUCAGAUUCUGUUGAAUCUGCGAAUUCUGCUGAAUAUCUC [G53U U74A] satisfied

Is the recorded value of self-cleavage equal to or greater than 0.2 for this variant? UAACAGGGGGCCACAGCAGAAGCGUUCACGUCGCAGCCCCUGUCAGAUUCUGGUGAACCUGCGAAUUCUGCUGUGUAUCUC [U58C A75G] satisfied

Has UAACAGGGGGCCACAGCAGAGGCGUUCACGUCGCAGCCCCUGUCAGAUUCUGGUGGAUCUGCGAAUUCUGCUGUAUAUCUC [A21G A56G] a recorded self-cleavage greater than or equal to 0.2? satisfied

Threshold query (self-cleavage >= 0.2) on UAACAGCGGGCCACAGCAGAAGCGUUCACGACGCAGCCCCUGUCAGAUUCUGGUGAAUCUGCGAAUUCUGCUGUAUAUCUC [G7C U31A] satisfied

Please indicate if the recorded self-cleavage for UAACAGGGGGCCACAGCAGAAGCGAUCUCGUCGCAGCCCCUGUCAGAUUCUGGUGAAUCUGCGAAUUCUGCUGUAUAUCUC [U25A A28U] meets or exceeds 0.2. satisfied

Textbook exercise: given the entry UAACAGGGGGCCACAGCAGAAGCGUUCACGUCGCAGCCCCUGUCAGACUCUGGUGAAUCUGCGAAUUCUGCUGUAUAUUUC [U48C C79U] , state whether its self-cleavage is greater than or equal to 0.2. satisfied

Is the recorded value of self-cleavage equal to or greater than 0.2 for this variant? UAACAGGGGGCCACAGUAGGAGCGUUCACGUCGCAGCCCCUGUCAGAUUCUGGUGAAUCUGCGAAUUCUGCUGUAUAUCUC [C17U A20G] satisfied

Identify whether the reported self-cleavage of the following variant is 0.2 or greater: UAACAGGGGGCCACAGCAGAAGGGUUCACGUCGCAGCCCCUGUCAGAUUCUGGUGAAUCUGCGAACUCUGCUGUAUAUCUC [C23G U66C] not satisfied

Does self-cleavage meet or surpass 0.2 for UAACAGGGGGCCACAGCAGAAGCGUUCACGUCGCAGCCCCUGUAAGAUUCUGGUGUAUCUGCGAAUUCUGCUGUAUAUCUC [C44A A56U] ? satisfied

State whether the measured self-cleavage reaches 0.2, counting equality as reaching it, for UAACAGGGGGCCACAGCAGUAGCGGUCACGUCGCAGCCCCUGUCAGAUUCUGGUGAAUCUGCGAAUUCUGCUGUAUAUCUC [A20U U25G] not satisfied
